src = patent US20250135028A1

Drug loading listing for selected molecules.
# Test Method Notes: Drug loading and encapsulation efficiency of drug loaded PNPs comprising pGlu(0.6C10)-PEG (HPLC)
# Assay type: physicochemical
# Condition Description: study 2, PLA-PEG (A) 10 mg + pGlu-PEG (B) 10 mg, 5 mg drug
Property: Drug loading (%)

- Molecule: "CN[C@H](CC(C)C)C(=O)N[C@H]1C(=O)N[C@@H](CC(N)=O)C(=O)N[C@H]2C(=O)N[C@H]3C(=O)N[C@H](C(=O)N[C@H](C(=O)O)c4cc(O)cc(O)c4-c4cc3ccc4O)[C@H](O[C@H]3C[C@](C)(N)[C@@H](O)[C@H](C)O3)c3ccc(c(Cl)c3)Oc3cc2cc(c3O[C@@H]2O[C@H](CO)[C@@H](O)[C@H](O)[C@H]2O[C@H]2C[C@](C)(NCc3ccc(-c4ccc(Cl)cc4)cc3)[C@@H](O)[C@H](C)O2)Oc2ccc(cc2Cl)[C@H]1O"
  Units Of Measure: "%"
  Test Value: 10.6
- Molecule: "CN[C@H](CC(C)C)C(=O)N[C@H]1C(=O)N[C@@H](CC(N)=O)C(=O)N[C@H]2C(=O)N[C@H]3C(=O)N[C@H](C(=O)N[C@H](C(=O)O)c4cc(O)cc(O)c4-c4cc3ccc4O)[C@H](O)c3ccc(c(Cl)c3)Oc3cc2cc(c3O[C@@H]2O[C@H](CO)[C@@H](O)[C@H](O)[C@H]2O[C@H]2C[C@](C)(N)[C@H](O)[C@H](C)O2)Oc2ccc(cc2Cl)[C@H]1O"
  Units Of Measure: "%"
  Test Value: 0.0
- Molecule: "CCCCCCCCCCNCCNC1(C)CC(OC2C(Oc3c4cc5cc3Oc3ccc(cc3Cl)C(O)C(NC(=O)C(CC(C)C)NC)C(=O)NC(CC(N)=O)C(=O)NC5C(=O)NC3C(=O)NC(C(=O)CC(C(=O)O)c5cc(O)cc(O)c5-c5cc3ccc5O)C(O)c3ccc(c(Cl)c3)O4)OC(CO)C(O)C2O)OC(C)C1O (stereo not shown)"
  Units Of Measure: "%"
  Test Value: 6.7
- Molecule: "CCCCCCCCCCNC(=O)CNC1(C)CC(OC2C(Oc3c4cc5cc3Oc3ccc(cc3Cl)C(O)C3NC(=O)C(NC(=O)C5NC(=O)C(CC(N)=O)NC(=O)C(NC(=O)C(CC(C)C)NC)C(O)c5ccc(c(Cl)c5)O4)c4ccc(O)c(c4)-c4c(O)cc(O)cc4C(C(=O)O)NC3=O)OC(CO)C(O)C2O)OC(C)C1O (stereo not shown)"
  Units Of Measure: "%"
  Test Value: 13.2
